Entries and their IC50
# STUDY_TARGET: Syk (Homo sapiens, UniProt P43405)
# ASSAY_REMARKS: Syk IC50 (Table 1; method not given)
# Assay type: biochemical

{"COMPOUND": "CC(=O)N(C)c1cccc(Nc2ncc(C(N)=O)c(N[C@H](C)c3ccccc3)n2)c1", "IC50": "> 1000 nM"}
{"COMPOUND": "COCC(=O)Nc1cccc(Nc2ncc(C(N)=O)c(NCc3ccc(OC)cc3)n2)c1", "IC50": "> 1000 nM"}
{"COMPOUND": "CC(=O)Nc1cccc(Nc2ncc(C(N)=O)c(N[C@H]3CCC[C@@H]3O)n2)c1 (relative stereo)", "IC50": "100 to 1000 nM"}
{"COMPOUND": "CC(=O)Nc1cccc(Nc2ncc(C(N)=O)c(NC[C@@H](C)c3ccccc3)n2)c1", "IC50": "> 1000 nM"}

* * *

# STUDY_TARGET: JAK2 (Homo sapiens, UniProt O60674)
# Construct: 5 μl of catalytic domain recombinant Kinase enzyme+Tyr peptide substrate (Invitrogen, Calif.)
# Sequence (O60674 849-1124 limits assumed): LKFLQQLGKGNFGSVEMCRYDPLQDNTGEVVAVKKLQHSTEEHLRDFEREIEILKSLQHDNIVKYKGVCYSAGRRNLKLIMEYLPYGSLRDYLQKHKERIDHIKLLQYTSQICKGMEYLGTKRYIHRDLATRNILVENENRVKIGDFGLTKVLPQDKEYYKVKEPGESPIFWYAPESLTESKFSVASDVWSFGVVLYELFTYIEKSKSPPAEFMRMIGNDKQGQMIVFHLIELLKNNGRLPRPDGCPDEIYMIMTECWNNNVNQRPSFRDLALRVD
# ASSAY_REMARKS: Z'-LYTE kinase assay, JAK2 tyrosine phosphorylation activity
pIC50: −log10 of the molar value.
Entries and their pIC50

{"MOLECULE": "CC(=O)Nc1cccc(Nc2ncc(C(N)=O)c(N[C@@H](CO)c3ccccc3)n2)c1 [Example 98]", "pIC50": "6.00 to 7.00"}
{"MOLECULE": "NC(=O)c1cnc(Nc2cccc(NC(=O)N3CCOCC3)c2)nc1NCc1cccc(F)c1 [Example 259]", "pIC50": "8.00 to 9.00"}
{"MOLECULE": "NC(=O)c1cnc(Nc2cccc(NC(=O)N3CCCC3)c2)nc1NC1CCCC1 [Example 37]", "pIC50": "7.00 to 8.00"}
{"MOLECULE": "CC(=O)Nc1cccc(Nc2ncc(C(N)=O)c(N[C@@H](C)C(N)=O)n2)c1 [Example 85]", "pIC50": "6.00 to 7.00"}
{"MOLECULE": "COCC(=O)N(C)c1cccc(Nc2ncc(C(N)=O)c(NCC3CC3)n2)c1 [Example 125]", "pIC50": "7.00 to 8.00"}
{"MOLECULE": "CC(=O)Nc1cccc(Nc2ncc(C(N)=O)c(NCC(F)(F)F)n2)c1 [Example 7]", "pIC50": "7.00 to 8.00"}
{"MOLECULE": "COC(=O)Nc1cccc(Nc2ncc(C(N)=O)c(NCc3ccccc3)n2)c1 [Example 30]", "pIC50": "7.00 to 8.00"}
{"MOLECULE": "CC(=O)Nc1cccc(Nc2cc(NCc3cccnc3)c(C(N)=O)cn2)c1 [Example 321]", "pIC50": "6.00 to 7.00"}
{"MOLECULE": "CC(=O)Nc1cccc(Nc2ncc(C(N)=O)c(NCc3ccccc3F)n2)c1 [Example 100]", "pIC50": "7.00 to 8.00"}
{"MOLECULE": "CC(=O)Nc1cccc(Nc2ncc(C(N)=O)c(NCc3ccc(Cl)c(Cl)c3)n2)c1 [Example 70]", "pIC50": "6.00 to 7.00"}
{"MOLECULE": "CCCCNc1nc(Nc2cccc(NC(=O)N3CCCC3)c2)ncc1C(N)=O [Example 135]", "pIC50": "7.00 to 8.00"}
{"MOLECULE": "NC(=O)c1cnc(Nc2cccc(NC(=O)N3CCCC3)c2)nc1NCc1ccccc1 [Example 40]", "pIC50": "7.00 to 8.00"}
{"MOLECULE": "NC(=O)c1cnc(Nc2ccc(F)c(NC(=O)N3CCC3)c2)cc1NCc1cccnc1 [Example 317]", "pIC50": "< 6.00"}
{"MOLECULE": "NC(=O)c1cnc(Nc2ccc(F)c(NC(=O)N3CCC3)c2)cc1NCc1cccc(F)c1 [Example 305]", "pIC50": "6.00 to 7.00"}
{"MOLECULE": "NC(=O)c1cnc(Nc2ccc(Cl)c(NC(=O)N3CCOCC3)c2)nc1NCc1ccccc1 [Example 182]", "pIC50": "7.00 to 8.00"}
{"MOLECULE": "CC(=O)Nc1cccc(Nc2ncc(C(N)=O)c(N(C)Cc3ccccc3)n2)c1 [Example 54]", "pIC50": "6.00 to 7.00"}
{"MOLECULE": "COCC(=O)N(C)c1cccc(Nc2ncc(C(N)=O)c(NCc3ccccc3)n2)c1 [Example 90]", "pIC50": "7.00 to 8.00"}
{"MOLECULE": "CC(=O)Nc1cccc(Nc2cc(NCC(C)C)c(C(N)=O)cn2)c1 [Example 323]", "pIC50": "6.00 to 7.00"}
{"MOLECULE": "NC(=O)c1cnc(Nc2ccc(Cl)c(NC(=O)N3CCCC3)c2)nc1NCc1cccc(F)c1 [Example 177]", "pIC50": "6.00 to 7.00"}
{"MOLECULE": "CC(=O)Nc1cccc(Nc2cc(NCc3cccc(F)c3)c(C(N)=O)cn2)c1 [Example 310]", "pIC50": "6.00 to 7.00"}
{"MOLECULE": "NC(=O)c1cnc(Nc2ccc(F)c(NC(=O)N3CCCC3)c2)cc1NCc1cccnc1 [Example 304]", "pIC50": "< 6.00"}
{"MOLECULE": "CC(=O)Nc1cccc(Nc2ncc(C(N)=O)c(NCCC(C)C)n2)c1 [Example 251]", "pIC50": "7.00 to 8.00"}
{"MOLECULE": "CC(=O)Nc1cccc(Nc2ncc(C(N)=O)c(N[C@H]3CCc4ccccc43)n2)c1 [Example 96]", "pIC50": "7.00 to 8.00"}
{"MOLECULE": "CC(=O)Nc1cccc(Nc2ncc(C(N)=O)c(NCc3cccnc3)n2)c1 [Example 188]", "pIC50": "7.00 to 8.00"}
{"MOLECULE": "CC(C)CNc1cc(Nc2cccc(NC(=O)N3CCCC3)c2)ncc1C(N)=O [Example 324]", "pIC50": "6.00 to 7.00"}
{"MOLECULE": "C[C@@H](Nc1nc(Nc2cccc(NC(=O)N3CCN(C)CC3)c2)ncc1C(N)=O)c1ccccc1 [Example 254]", "pIC50": "8.00 to 9.00"}
{"MOLECULE": "C[C@@H](Nc1nc(Nc2cccc(NC(=O)N3CCC[C@@H]3C)c2)ncc1C(N)=O)c1ccccc1 [Example 137]", "pIC50": "7.00 to 8.00"}
{"MOLECULE": "NC(=O)c1cnc(Nc2ccc(Cl)c(NC(=O)N3CCCC3)c2)nc1NC1CCCC1 [Example 167]", "pIC50": "6.00 to 7.00"}
{"MOLECULE": "CC(=O)Nc1cccc(Nc2ncc(C(N)=O)c(N[C@H](C)C(C)C)n2)c1 [Example 252]", "pIC50": "8.00 to 9.00"}
{"MOLECULE": "CNC(=O)Nc1cccc(Nc2ncc(C(N)=O)c(NCc3ccccc3)n2)c1 [Example 39]", "pIC50": "7.00 to 8.00"}
{"MOLECULE": "CC(=O)Nc1cccc(Nc2ncc(C(N)=O)c(NC[C@@H](O)CO)n2)c1 [Example 83]", "pIC50": "6.00 to 7.00"}
{"MOLECULE": "CC(=O)Nc1cccc(Nc2ncc(C(N)=O)c(NCc3c(F)ccc(F)c3F)n2)c1 [Example 59]", "pIC50": "7.00 to 8.00"}
{"MOLECULE": "CC(=O)Nc1cccc(Nc2ncc(C(N)=O)c(NCc3cccc(Cl)c3)n2)c1 [Example 101]", "pIC50": "8.00 to 9.00"}
{"MOLECULE": "NC(=O)c1cnc(Nc2cccc(NC(=O)[C@@H]3CCCO3)c2)nc1NCc1ccccc1 [Example 206]", "pIC50": "7.00 to 8.00"}
